As shown below, each of these compounds has a reported Response (%) OX2R value.
target: human OX2R (Homo sapiens, UniProt O43614); construct: expressed in transfected cells; host or cells: CHO (Chinese hamster ovary) cells, line CHOOX2R, co-expressing NFAT-luciferase; assay: Agonist activity against OX2R: intracellular calcium (Fura-2AM, FDSS7000) in CHOOX2R cells; format: cell-based; details: 0.1 μM test compound; relative to orexin-A as full agonist (100%)
Sequence (O43614 whole entry): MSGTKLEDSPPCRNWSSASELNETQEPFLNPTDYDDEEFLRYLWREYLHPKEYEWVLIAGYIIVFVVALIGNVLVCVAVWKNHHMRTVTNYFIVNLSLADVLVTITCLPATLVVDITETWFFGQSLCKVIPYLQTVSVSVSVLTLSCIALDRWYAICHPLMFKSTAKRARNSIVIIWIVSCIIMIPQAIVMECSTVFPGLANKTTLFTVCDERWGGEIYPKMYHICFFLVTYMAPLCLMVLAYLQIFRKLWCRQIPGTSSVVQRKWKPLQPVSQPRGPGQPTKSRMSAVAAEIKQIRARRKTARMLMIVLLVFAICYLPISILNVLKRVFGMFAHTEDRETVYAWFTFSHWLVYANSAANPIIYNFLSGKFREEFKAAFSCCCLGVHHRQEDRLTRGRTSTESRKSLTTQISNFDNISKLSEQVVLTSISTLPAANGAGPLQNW

molecule-smiles | limit-sign | Response (%) OX2R
COc1ccccc1C(=O)Nc1cccc(NS(=O)(=O)c2cc(-c3cccc(C(=O)N(C)C)c3)ccc2OC)c1 | < | 5
COc1ccc(C(=O)Nc2cccc(NS(=O)(=O)c3cc(-c4cccc(C(=O)N(C)C)c4)ccc3OC)c2)cc1 | < | 5
COc1ccc(-c2cccc(C(=O)N(C)C)c2)cc1S(=O)(=O)Nc1cccc(NC(=O)Nc2cccc(C(=O)O)c2)c1 | < | 5
COc1ccc(-c2cccc(C(=O)N(C)C)c2)cc1S(=O)(=O)Nc1cccc(NC(=O)c2ccccc2C)c1 | < | 5
COc1ccc(-c2cccc(C(=O)N(C)C)c2)cc1S(=O)(=O)Nc1cccc(NC(=O)Nc2cccs2)c1 | = | 15
COc1ccc(-c2cccc(C(=O)N(C)C)c2)cc1S(=O)(=O)Nc1cccc(Nc2c(Nc3cccc(C)c3)c(=O)c2=O)c1 | < | 5
COc1ccc(-c2cccc(C(=O)N(C)C)c2)cc1S(=O)(=O)Nc1cccc(NC(=O)Nc2cccnc2)c1 | = | 7
COc1ccc(-c2cccc(C(=O)N(C)C)c2)cc1S(=O)(=O)Nc1cccc(NC(=O)Nc2cccc(N(C)C)c2)c1 | = | 77
COc1ccccc1Nc1cccc(NS(=O)(=O)c2cc(-c3cccc(C(=O)N(C)C)c3)ccc2OC)c1 | < | 5
COc1cccc(NC(=O)Nc2cccc(NS(=O)(=O)c3cc(-c4cccc(C(=O)N(C)C)c4)ccc3OC)c2)c1 | = | 100
COc1ccc(-c2cccc(C(=O)N(C)C)c2)cc1S(=O)(=O)Nc1cccc(NC(=O)c2ccccc2Br)c1 | < | 5
COc1ccc(-c2cccc(C(=O)N(C)C)c2)cc1S(=O)(=O)Nc1cccc(NC(=O)c2cccc(C)c2)c1 | = | 12
COc1ccc(-c2cccc(C(=O)N(C)C)c2)cc1S(=O)(=O)Nc1cccc(NC(=O)Nc2ccccc2N(C)C)c1 | = | 17
COc1ccc(-c2cccc(C(=O)N(C)C)c2)cc1S(=O)(=O)Nc1cccc(NC(=O)NCc2ccccc2)c1 | = | 79
COc1ccc(-c2cccc(C(=O)N(C)C)c2)cc1S(=O)(=O)Nc1cccc(NC(=O)c2ccc3ccccc3c2)c1 | < | 5
COc1ccc(-c2cccc(C(=O)N(C)C)c2)cc1S(=O)(=O)Nc1cccc(Nc2c(OC)c(=O)c2=O)c1 | < | 5
COc1ccc(-c2cccc(C(=O)N(C)C)c2)cc1S(=O)(=O)Nc1cccc(NC(=O)Nc2ccncc2)c1 | = | 9
COc1ccc(-c2cccc(C(=O)N(C)C)c2)cc1S(=O)(=O)Nc1cccc(NC(=O)Nc2cc(OC)c(OC)c(OC)c2)c1 | = | 91
COc1ccc(-c2cccc(C(=O)N(C)C)c2)cc1S(=O)(=O)Nc1cccc(Nc2ccccc2)c1 | < | 5
COc1ccc(-c2cccc(C(=O)N(C)C)c2)cc1S(=O)(=O)Nc1cccc(NC(=O)c2ccc(N(C)C)cc2)c1 | = | 8
COc1ccc(-c2cccc(C(=O)N(C)C)c2)cc1S(=O)(=O)Nc1cccc(NC(=O)Nc2cccc(NC(=NC(=O)OC(C)(C)C)NC(=O)OC(C)(C)C)c2)c1 | < | 5
COc1ccc(-c2cccc(C(=O)N(C)C)c2)cc1S(=O)(=O)Nc1cccc(NC(=O)Nc2ccc(Br)cc2)c1 | = | 93
COc1ccc(-c2cccc(C(=O)N(C)C)c2)cc1S(=O)(=O)Nc1cccc(NC(=O)Nc2ccccc2[N+](=O)[O-])c1 | = | 74
COc1ccc(-c2cccc(C(=O)N(C)C)c2)cc1S(=O)(=O)Nc1cccc(NC(=O)Nc2cccc(NC(=N)N)c2)c1 | < | 5
COc1ccc(-c2cccc(C(=O)N(C)C)c2)cc1S(=O)(=O)Nc1cccc(NC(=O)Nc2ccc(C)cc2)c1 | = | 95
COc1ccc(-c2cccc(C(=O)N(C)C)c2)cc1S(=O)(=O)Nc1cccc(NC(=O)Nc2ccc(N(C)C)cc2)c1 | = | 73
COc1ccc(-c2cccc(C(=O)N(C)C)c2)cc1S(=O)(=O)Nc1cccc(NC(=N)Nc2cccc(C)c2)c1 | = | 23
COc1ccccc1NC(=O)Nc1cccc(NS(=O)(=O)c2cc(-c3cccc(C(=O)N(C)C)c3)ccc2OC)c1 | = | 43
